System: Escherichia coli TOP10
Test: shrunken log2 fold change of peptide-encoding DNA abundance (4.5 h post-induction vs induction); higher = less antimicrobial activity (less host growth inhibition)
Assay Conditions: time post-induction: 4.5 h; library: site-saturation at positions 5, 18, 19, 20
Measure Name: shrunken log2 fold change
Provide a numeric answer; units are not to be included.

Below are worked cases with known answers.
            query_sequence               measure_name  reported_result
0  RRIRERPPRLPRPRPRPSIAPRP  shrunken log2 fold change           -0.259
1  RRIRHRPPRLPRPRPRPRPQPRP  shrunken log2 fold change            0.416
2  RRIRERPPRLPRPRPRPSAMPRP  shrunken log2 fold change           -0.279

Q) Any idea what shrunken log2 fold change was measured for RRIRLRPPRLPRPRPRPQWLPRP ?
A) -0.141

Q) Request: RRIRRRPPRLPRPRPRPFLDPRP
A) 0.0172

Q) Request: RRIRMRPPRLPRPRPRPYDCPRP
A) -0.113

Q) Request: RRIRWRPPRLPRPRPRPEFPPRP
A) 0.0195

Q) Request: RRIRVRPPRLPRPRPRPFQMPRP
A) -0.333

Q) Request: RRIRWRPPRLPRPRPRPKFVPRP
A) 0.295

Q) Request: RRIRGRPPRLPRPRPRPWGNPRP
A) 0.0898

Q) Request: RRIRHRPPRLPRPRPRPLLSPRP
A) -0.0464

Q) Request: RRIRHRPPRLPRPRPRPWTPPRP
A) -0.502

Q) Request: RRIRLRPPRLPRPRPRPTSTPRP
A) -0.194

Q) Request: RRIRARPPRLPRPRPRPFKCPRP
A) -0.0202

Q) Request: RRIRLRPPRLPRPRPRPGKDPRP
A) -0.153

* * *

Test system: Escherichia coli TOP10
Test: shrunken log2 fold change of peptide-encoding DNA abundance (4.5 h post-induction vs induction); higher = less antimicrobial activity (less host growth inhibition)
Assay Conditions: time post-induction: 4.5 h; library: site-saturation at positions 5, 18, 19, 20
Measure Name: shrunken log2 fold change
Provide a numeric answer; units are not to be included.

Below are worked cases with known answers.
>>> df
            query_sequence               measure_name  reported_result
0  RRIRCRPPRLPRPRPRPEMIPRP  shrunken log2 fold change             0.12
1  RRIRMRPPRLPRPRPRPDWGPRP  shrunken log2 fold change           0.0473
2  RRIRMRPPRLPRPRPRPQYEPRP  shrunken log2 fold change           -0.148

Q) Any idea what shrunken log2 fold change was measured for RRIRIRPPRLPRPRPRPDNDPRP ?
A) -0.115

Q) Request: RRIRSRPPRLPRPRPRPDSRPRP
A) 0.148

Q) Request: RRIRLRPPRLPRPRPRPWYHPRP
A) 0.112

Q) Request: RRIRERPPRLPRPRPRPVTVPRP
A) -0.0984

Q) Request: RRIRTRPPRLPRPRPRPHEQPRP
A) 0.177

Q) Request: RRIRMRPPRLPRPRPRPAMPPRP
A) 0.548

Q) Request: RRIRQRPPRLPRPRPRPKCYPRP
A) -0.234

Q) Request: RRIRLRPPRLPRPRPRPPHYPRP
A) 0.0636

Q) Request: RRIRQRPPRLPRPRPRPRKCPRP
A) 0.158

Q) Request: RRIRHRPPRLPRPRPRPGFEPRP
A) 0.373

Q) Request: RRIRDRPPRLPRPRPRPPYQPRP
A) 0.251

Q) Request: RRIRYRPPRLPRPRPRPVVIPRP
A) -0.868

Q) Request: RRIRDRPPRLPRPRPRPVPGPRP
A) 0.214

* * *

We begin with a simple list: items and their reported shrunken log2 fold change.
Test system: Escherichia coli TOP10
Test: shrunken log2 fold change of peptide-encoding DNA abundance (4.5 h post-induction vs induction); higher = less antimicrobial activity (less host growth inhibition)
Assay Conditions: time post-induction: 4.5 h; library: site-saturation at positions 5, 18, 19, 20

Below are worked cases with known answers.
            query_sequence               measure_name  reported_result
0  RRIRLRPPRLPRPRPRPYPPPRP  shrunken log2 fold change           -0.866
1  RRIRHRPPRLPRPRPRPELMPRP  shrunken log2 fold change           -0.141
2  RRIRSRPPRLPRPRPRPDPHPRP  shrunken log2 fold change           -0.151
3  RRIRYRPPRLPRPRPRPDHGPRP  shrunken log2 fold change          -0.0075
4  RRIRNRPPRLPRPRPRPLSAPRP  shrunken log2 fold change           -0.097

Q) Any idea what shrunken log2 fold change was measured for RRIRERPPRLPRPRPRPAKSPRP ?
A) 0.0676

Q) Request: RRIRPRPPRLPRPRPRPIIQPRP
A) -0.402

Q) Request: RRIRPRPPRLPRPRPRPQATPRP
A) -0.2

Q) Request: RRIRARPPRLPRPRPRPSDFPRP
A) 0.0983

Q) Request: RRIRDRPPRLPRPRPRPRERPRP
A) 0.352

Q) Request: RRIRGRPPRLPRPRPRPASWPRP
A) 2.63

Q) Request: RRIRARPPRLPRPRPRPYAEPRP
A) -0.104

Q) Request: RRIRSRPPRLPRPRPRPLSLPRP
A) 0.0119

Q) Request: RRIRIRPPRLPRPRPRPYLNPRP
A) -0.239

Q) Request: RRIRVRPPRLPRPRPRPKYKPRP
A) -0.574

* * *

System: Escherichia coli TOP10
Test: shrunken log2 fold change of peptide-encoding DNA abundance (4.5 h post-induction vs induction); higher = less antimicrobial activity (less host growth inhibition)
Assay Conditions: time post-induction: 4.5 h; library: site-saturation at positions 5, 18, 19, 20
Measure Name: shrunken log2 fold change
Provide a numeric answer; units are not to be included.

Below are worked cases with known answers.
In [3]: df
Out[3]:
            query_sequence  reported_result
0  RRIRPRPPRLPRPRPRPSRVPRP            0.269
1  RRIRCRPPRLPRPRPRPKYKPRP           -0.834

Q) Reported shrunken log2 fold change for Escherichia coli TOP10, given RRIRHRPPRLPRPRPRPDQWPRP ?
A) -0.108

Q) Request: RRIRKRPPRLPRPRPRPQNQPRP
A) 0.0634

* * *

Tested on: Escherichia coli TOP10
Test: shrunken log2 fold change of peptide-encoding DNA abundance (4.5 h post-induction vs induction); higher = less antimicrobial activity (less host growth inhibition)
Assay Conditions: time post-induction: 4.5 h; library: site-saturation at positions 5, 18, 19, 20
# if value of shrunken log2 fold change reaches 0.06, tag TRUE; if it stays below, tag FALSE

>>> df
            query_sequence         target_of_assay  class_assignment
0  RRIRCRPPRLPRPRPRPHVMPRP  Escherichia coli TOP10             FALSE
1  RRIRCRPPRLPRPRPRPECMPRP  Escherichia coli TOP10              TRUE
2  RRIRERPPRLPRPRPRPVRWPRP  Escherichia coli TOP10              TRUE
3  RRIRGRPPRLPRPRPRPQLPPRP  Escherichia coli TOP10              TRUE
4  RRIRTRPPRLPRPRPRPVWTPRP  Escherichia coli TOP10             FALSE
5  RRIRPRPPRLPRPRPRPLDLPRP  Escherichia coli TOP10             FALSE
6  RRIRMRPPRLPRPRPRPPYMPRP  Escherichia coli TOP10             FALSE
7  RRIRWRPPRLPRPRPRPRHTPRP  Escherichia coli TOP10             FALSE

Q) State whether the measured shrunken log2 fold change reaches 0.06, counting equality as reaching it, for RRIRLRPPRLPRPRPRPYFRPRP
A) FALSE

Q) Request: RRIRDRPPRLPRPRPRPDVHPRP
A) TRUE

Q) Request: RRIRCRPPRLPRPRPRPIQCPRP
A) FALSE

* * *

We begin with a simple list: items and their reported shrunken log2 fold change.
Test system: Escherichia coli TOP10;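 also: peptides expressed intracellularly from a pBAD plasmid library in pooled LB shake-flask culture, induced with 0.3% L-arabinose, DNA abundance read by NGS, three biological replicates, DESeq2 with apeglm shrinkage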
Test: shrunken log2 fold change of peptide-encoding DNA abundance (4.5 h post-induction vs induction); higher = less antimicrobial activity (less host growth inhibition)
Assay Conditions: time post-induction: 4.5 h; library: site-saturation at positions 5, 18, 19, 20
Provide a numeric answer; units are not to be included.

Below are worked cases with known answers.
In [3]: df
Out[3]:
            query_sequence         target_of_assay  reported_result
0  RRIRQRPPRLPRPRPRPNALPRP  Escherichia coli TOP10            0.023
1  RRIRGRPPRLPRPRPRPERVPRP  Escherichia coli TOP10            0.397
2  RRIRKRPPRLPRPRPRPLYKPRP  Escherichia coli TOP10           -0.112
3  RRIRNRPPRLPRPRPRPSMRPRP  Escherichia coli TOP10         0.000173
4  RRIRDRPPRLPRPRPRPVRHPRP  Escherichia coli TOP10            0.646
5  RRIRVRPPRLPRPRPRPIRRPRP  Escherichia coli TOP10           0.0517

Q) Any idea what shrunken log2 fold change was measured for RRIRMRPPRLPRPRPRPDHLPRP ?
A) -0.0674

Q) Request: RRIRKRPPRLPRPRPRPLWDPRP
A) 0.609

Q) Request: RRIRTRPPRLPRPRPRPWQQPRP
A) -0.0121

Q) Request: RRIRTRPPRLPRPRPRPYVFPRP
A) -0.394

Q) Request: RRIRIRPPRLPRPRPRPMVTPRP
A) -0.018

Q) Request: RRIRPRPPRLPRPRPRPKYEPRP
A) -0.203

Q) Request: RRIRQRPPRLPRPRPRPYTGPRP
A) -0.0162

Q) Request: RRIRARPPRLPRPRPRPDVNPRP
A) 0.0462

Q) Request: RRIRVRPPRLPRPRPRPWWGPRP
A) 0.0115
